test system: A375 cells (V600E mutated BRAF), ERK phospho-T202/Y204; test: HTRF assay for P-ERK determination in A375 cells (BRAF inhibition); type: cell-based; settings: Homo sapiens, A-375, 1 hour drug incubation, DMSO = 100%, 10 μM Dabrafenib = 0%, top concentration 10 μM, read-out: P-ERK_A375: IC50
PARAMETER_MEASURED: IC50 (nM)

As a guide, the following entries are already answered.
{"columns": ["MOLECULE", "UNIT_ANNOTATION", "IC50"],
 "data": [
  ["CC(=O)NCCOCCOCCNc1ncc2cc(-c3c(F)ccc(NS(=O)(=O)N4CC[C@@H](F)C4)c3F)c(=O)n(C)c2n1", "nM", 196],
  ["CC(=O)N[C@H]1CC[C@H](Nc2ncc3cc(-c4c(F)ccc(NS(=O)(=O)N5CC[C@@H](F)C5)c4F)c(=O)n(C)c3n2)C1", "nM", 126],
  ["Cn1c(=O)c(-c2c(F)ccc(NS(=O)(=O)N3CC[C@@H](F)C3)c2F)cc2cnc(NCCc3cnc(CC(=O)OC(C)(C)C)nc3)nc21", "nM", 176],
  ["Cn1c(=O)c(-c2c(F)ccc(NS(=O)(=O)N3CC[C@@H](F)C3)c2F)cc2cnc(NCCOCCOCCO)nc21", "nM", 47.4],
  ["CCN(C)S(=O)(=O)Nc1cccc(-c2cc3cnc(NCCC4CCN(C(C)=O)CC4)nc3n(C)c2=O)c1C#N", "nM", 49.5],
  ["CC(=O)N1CCC(CCNc2ncc3cc(-c4c(F)ccc(NS(=O)(=O)N5CC[C@@H](F)C5)c4F)c(=O)n(C)c3n2)CC1", "nM", 36.7]
]}

(a) Cn1c(=O)c(-c2c(F)ccc(NS(=O)(=O)N3CC[C@@H](F)C3)c2F)cc2cnc(NCCC3CCN(C(=O)OC(C)(C)C)CC3)nc21
(b) CC(=O)N[C@H]1C[C@H](n2c(=O)c(-c3c(F)ccc(NS(=O)(=O)N4CC[C@@H](F)C4)c3F)cc3cnc(NCC4CC4)nc32)C1
(c) CNCCCNc1ncc2cc(-c3c(F)ccc(NS(=O)(=O)N4CC[C@@H](F)C4)c3F)c(=O)n(C)c2n1.Cl [Example 16, hydrochloride]
(d) Cn1c(=O)c(-c2c(F)ccc(NS(=O)(=O)N3CC[C@@H](F)C3)c2F)cc2cnc(NC3CCCC3)nc21
(e) CC(=O)N1Cc2ccc(CCNc3ncc4cc(-c5c(F)ccc(NS(=O)(=O)N6CC[C@@H](F)C6)c5F)c(=O)n(C)c4n3)cc2C1
Reorder: IC50, max to min. Sort the labels as requested; that list is your answer.
c, b, a, d, e
(c: 687 nM, b: 108 nM, a: 63.3 nM, d: 30.8 nM, e: 8.4 nM)

(A) CC(=O)N(C)CCCNc1ncc2cc(-c3c(F)ccc(NS(=O)(=O)N4CC[C@@H](F)C4)c3F)c(=O)n(C)c2n1
(B) CC(=O)NCc1ccc(CCNc2ncc3cc(-c4c(F)ccc(NS(=O)(=O)N5CC[C@@H](F)C5)c4F)c(=O)n(C)c3n2)cc1
Pick one: A or B . Which has the bigger IC50 number? Indicate which entry you chose by stating its label.
A
(A: 54.8 nM, B: 37.3 nM)

---

pKd: −log10 of the molar value.
Hi! I'm sharing some pKd results obtained with BRAF (Homo sapiens, UniProt P15056).
Sequence (P15056 whole entry): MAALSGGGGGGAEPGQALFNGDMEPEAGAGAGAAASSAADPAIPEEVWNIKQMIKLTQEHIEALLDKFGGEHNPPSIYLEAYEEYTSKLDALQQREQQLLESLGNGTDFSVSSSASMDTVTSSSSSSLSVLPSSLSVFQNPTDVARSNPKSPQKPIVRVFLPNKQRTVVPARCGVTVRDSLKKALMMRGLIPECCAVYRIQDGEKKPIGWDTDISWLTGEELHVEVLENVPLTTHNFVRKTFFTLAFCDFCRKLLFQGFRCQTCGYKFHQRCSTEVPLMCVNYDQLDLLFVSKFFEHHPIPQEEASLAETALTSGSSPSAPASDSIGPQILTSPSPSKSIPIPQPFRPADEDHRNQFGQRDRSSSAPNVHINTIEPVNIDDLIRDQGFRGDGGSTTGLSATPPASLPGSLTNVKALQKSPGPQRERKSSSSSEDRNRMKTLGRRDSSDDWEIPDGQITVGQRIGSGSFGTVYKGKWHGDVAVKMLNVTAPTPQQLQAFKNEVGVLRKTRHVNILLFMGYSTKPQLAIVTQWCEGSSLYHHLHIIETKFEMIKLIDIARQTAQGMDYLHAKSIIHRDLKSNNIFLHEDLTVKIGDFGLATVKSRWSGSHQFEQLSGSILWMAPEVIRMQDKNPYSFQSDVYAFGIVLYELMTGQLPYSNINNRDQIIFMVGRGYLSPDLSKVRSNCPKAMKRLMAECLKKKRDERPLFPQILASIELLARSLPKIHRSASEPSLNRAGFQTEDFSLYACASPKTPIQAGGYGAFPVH
PARAMETER_MEASURED: pKd

Reference set (2 entries):
{"columns": ["MOLECULE", "TARGET_UNDER_TEST", "NUMERIC_VALUE"],
 "data": [
  ["Cl.Cn1c(=O)c(-c2c(F)ccc(NS(=O)(=O)N3CC[C@@H](F)C3)c2F)cc2cnc(NCCC3CCNCC3)nc21 [Example 14, hydrochloride]", "BRAF (Homo sapiens, UniProt P15056)", 7.42],
  ["Cn1c(=O)c(-c2c(F)ccc(NS(=O)(=O)N3CC[C@@H](F)C3)c2F)cc2cnc(NCCCc3ccccc3)nc21", "BRAF (Homo sapiens, UniProt P15056)", 7.33]
]}

(I) CCN(C)S(=O)(=O)Nc1ccc(F)c(-c2cc3cnc(NCCCNC)nc3n(C)c2=O)c1F.Cl [Example 17, hydrochloride]
(II) CC(=O)NCc1cccc(CCNc2ncc3cc(-c4c(F)ccc(NS(=O)(=O)N5CC[C@@H](F)C5)c4F)c(=O)n(C)c3n2)c1
(III) CCN(C)S(=O)(=O)Nc1ccc(F)c(-c2cc3cnc(NCCCN(C)C(C)=O)nc3n(C)c2=O)c1F
(IV) Cl.Cn1c(=O)c(-c2c(F)ccc(NS(=O)(=O)N3CC[C@@H](F)C3)c2F)cc2cnc(NCCCC3CCNCC3)nc21 [Example 18, hydrochloride]
Sort entries by pKd from minimum to maximum value. Provide your answer as the labels ordered per the instruction.
I, III, IV, II
(I: 6.78, III: 7.14, IV: 7.59, II: 8.74)

---

molecular target: BRAF V660E (Homo sapiens, UniProt P15056, V600E); assay: KD BRAF V660E (Table 1; no method described)
Sequence (P15056 2-766 V600E): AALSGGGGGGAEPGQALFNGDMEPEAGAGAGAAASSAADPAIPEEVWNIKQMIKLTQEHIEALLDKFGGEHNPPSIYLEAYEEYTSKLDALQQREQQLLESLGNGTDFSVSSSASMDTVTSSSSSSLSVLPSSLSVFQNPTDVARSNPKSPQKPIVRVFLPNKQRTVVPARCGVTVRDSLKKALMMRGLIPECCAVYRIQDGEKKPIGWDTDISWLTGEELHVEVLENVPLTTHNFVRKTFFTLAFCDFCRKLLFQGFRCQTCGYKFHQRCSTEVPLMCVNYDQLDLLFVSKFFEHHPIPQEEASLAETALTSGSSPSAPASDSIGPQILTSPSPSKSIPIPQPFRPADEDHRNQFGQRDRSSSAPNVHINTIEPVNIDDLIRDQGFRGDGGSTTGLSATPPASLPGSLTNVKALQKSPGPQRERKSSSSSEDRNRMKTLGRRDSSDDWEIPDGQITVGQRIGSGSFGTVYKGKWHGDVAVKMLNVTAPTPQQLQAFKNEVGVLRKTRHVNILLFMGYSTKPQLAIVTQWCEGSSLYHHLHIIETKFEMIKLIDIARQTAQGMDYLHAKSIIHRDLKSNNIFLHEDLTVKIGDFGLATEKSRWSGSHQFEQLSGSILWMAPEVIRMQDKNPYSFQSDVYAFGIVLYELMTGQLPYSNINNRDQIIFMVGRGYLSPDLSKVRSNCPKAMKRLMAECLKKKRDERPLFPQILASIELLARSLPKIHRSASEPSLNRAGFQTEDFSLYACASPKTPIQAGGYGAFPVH
pKd: −log10 of the molar value.
PARAMETER_MEASURED: pKd

Would you please look over these solved cases?
{"columns": ["COMPOUND", "TARGET_UNDER_TEST", "pKd"],
 "data": [
  ["CC(=O)NCCOCCOCCNc1ncc2cc(-c3c(F)ccc(NS(=O)(=O)N4CC[C@@H](F)C4)c3F)c(=O)n(C)c2n1 [Example 32]", "BRAF V660E (Homo sapiens, UniProt P15056, V600E)", 7.15],
  ["CC(=O)N[C@H]1CC[C@H](Nc2ncc3cc(-c4c(F)ccc(NS(=O)(=O)N5CC[C@@H](F)C5)c4F)c(=O)n(C)c3n2)C1 [Example 24]", "BRAF V660E (Homo sapiens, UniProt P15056, V600E)", 7.56]
]}

(I) Cl.Cn1c(=O)c(-c2c(F)ccc(NS(=O)(=O)N3CC[C@@H](F)C3)c2F)cc2cnc(NCCCC(=O)NC3CCNCC3)nc21 [Example 19, hydrochloride]
(II) COC(=O)Cc1cccc(CCNc2ncc3cc(-c4c(F)ccc(NS(=O)(=O)N5CC[C@@H](F)C5)c4F)c(=O)n(C)c3n2)c1 [Example 47]
I'm curious whether I or II has the smaller pKd number. Which is it? Record your answer as the label of the chosen record.
I
(I: 7.22, II: 7.63)

---

molecular target: BRAF V660E (Homo sapiens, UniProt P15056, V600E); test: KD BRAF V660E (Table 1; no method described)
pKd: −log10 of the molar value.
PARAMETER_MEASURED: pKd

{"columns": ["COMPOUND", "TARGET_UNDER_TEST", "PARAMETER_MEASURED", "NUMERIC_VALUE"],
 "data": [
  ["CC(=O)N1CCC(O)(CCNc2ncc3cc(-c4c(F)ccc(NS(=O)(=O)N5CC[C@@H](F)C5)c4F)c(=O)n(C)c3n2)CC1", "BRAF V660E (Homo sapiens, UniProt P15056, V600E)", "pKd", 7.56],
  ["CCN(C)S(=O)(=O)Nc1ccc(F)c(-c2cc3cnc(NCCCN(C)C(C)=O)nc3n(C)c2=O)c1F", "BRAF V660E (Homo sapiens, UniProt P15056, V600E)", "pKd", 6.80],
  ["Cn1c(=O)c(-c2c(F)ccc(NS(=O)(=O)N3CC[C@@H](F)C3)c2F)cc2cnc(NCCOc3ccccc3)nc21", "BRAF V660E (Homo sapiens, UniProt P15056, V600E)", "pKd", 6.92],
  ["CC(=O)N[C@H]1C[C@H](n2c(=O)c(-c3c(F)ccc(NS(=O)(=O)N4CC[C@@H](F)C4)c3F)cc3cnc(NCC4CC4)nc32)C1", "BRAF V660E (Homo sapiens, UniProt P15056, V600E)", "pKd", 7.89]
]}

(a) CC(=O)NCc1cccc(CCNc2ncc3cc(-c4c(F)ccc(NS(=O)(=O)N5CC[C@@H](F)C5)c4F)c(=O)n(C)c3n2)c1
(b) CC(C)(C)OC(=O)N1CCC(n2c(=O)c(-c3c(F)ccc(NS(=O)(=O)N4CC[C@@H](F)C4)c3F)cc3cnc(NCC4CC4)nc32)C1 (mixture of isomers)
Field: lower recorded pKd (choose a or b ) Returns: label corresponding to the selected item.
b
(b: 5.55, a: 8.40)

---

tested on: HCT116 cells (WT BRAF), ERK phospho-T202/Y204; assay: HTRF assay for P-ERK determination in HCT116 cells (BRAF activation, paradox); type: cell-based; settings: Homo sapiens, HCT-116; HCT116 cells, 1 hour drug incubation; activation relative to maximum Dabrafenib-mediated activation (100%); top concentration 10 μM; read-out: P-ERK_HCT-116: EC50—50PCT
PARAMETER_MEASURED: EC50 (µM)

(A) CC(=O)N1CCN(CCNc2ncc3cc(-c4c(F)ccc(NS(=O)(=O)N5CC[C@@H](F)C5)c4F)c(=O)n(C)c3n2)CC1 [Example 31]
(B) CC(=O)NCc1ccc(CCNc2ncc3cc(-c4c(F)ccc(NS(=O)(=O)N5CC[C@@H](F)C5)c4F)c(=O)n(C)c3n2)cc1 [Example 35]
For this pair, A and B , which shows a numerically higher EC50? Write the label of whichever entry you select.
A
(A: 6.4 µM, B: 1.49 µM)
